These entries and their values trace back to patent US20090075941A1.

- System: unprenylated Rap1A in AB-12 mesothelioma cells
- assayComment: Western blot, unprenylated Rap1A (Example 2)
- Format: cell-based, mouse
- conditions: AB-12 cells; 24 h

{"molecule": "CC(O)(P(=O)(O)O)P(=O)(O)O [etidronate]", "accumulation of unprenylated Rap1A": "no effect"}
{"molecule": "O=P(O)(O)C(Cl)(Cl)P(=O)(O)O [clodronate]", "accumulation of unprenylated Rap1A": "no effect"}
